B1: FtsZ (purified, WT) [E. coli] / itself (parent)
chain: MFEPMELTNDAVIKVIGVGGGGGNAVEHMVRERIEGVEFFAVNTDAQALRKTAVGQTIQIGSGITKGLGAGANPEVGRNAADEDRDALRAALEGADMVFIAAGMGGGTGTGAAPVVAEVAKDLGILTVAVVTKPFNFEGKKRMAFAEQGITELSKHVDSLITIPNDKLLKVLGRGISLLDAFGAANDVLKGAVQGIAELITRPGLMNVDFADVRTVMSEMGYAMMGSGVASGEDRAEEAAEMAISSPLLEDIDLSGARGVLVNITAGFDLRLDEFETVGNTIRAFASDNATVVIGTSLDPDMNDELRVTVVATGIGMDKRPEITLVTNKQVQQPVMDRYQQHGMAPLTQEQKPVAKVVNDNAPQTAKEPDYLDIPAFLRKQAD

variants of: B1; assay: sedimentation (co-pelleting) assay, SDS-PAGE quantification; conditions: with itself; 5 µM FtsZ with ZapD at 1:1; 50 mM K-MOPS pH 6.5, 50 mM KCl, 2.5 mM MgCl2, 1 mM GTP, 3 µM BSA; read off a plot
Tag: Yes if measured response (% FtsZ in pellet) is not below 60, No if it is.

Recorded results for 4 variants are shown here.
Quick check, response (% FtsZ in pellet) >= 60? chain 1 K380D D383K
Yes

Quick check, response (% FtsZ in pellet) >= 60? chain 1 D383K
Yes

Quick check, response (% FtsZ in pellet) >= 60? chain 1 K380Q A382Q D383Q
Yes

Quick check, response (% FtsZ in pellet) >= 60? chain 1 K380D
No

Attention now turns to another entry.
Quick check, response (% FtsZ in pellet) >= 60? chain 1 K380R D383R
No
